# reported Number of hatched larvae 4 days after insecticide delivery, Replicate 2; entries follow
Tested on: eggs of Harmonia axyridis
Assay: Effect on hatching of eggs of Harmonia axyridis, egg card immersion
Type: in vivo
Details: Harmonia axyridis egg cards, 100 ppm, immersed 30 seconds, replicate 2
Description: The eggs of Harmonia axyridis cards (with approximately 20 eggs per card) were purchased from Henan Jiyuan Baiyun Industry Co., Ltd. in Henan Province. The number of eggs on the egg cards was counted as the basic number before insecticide delivery, and 5 cards were used as one treatment, with 3 replicates per treatment. […]

# example entries with known answers
compound	experimentalValue
CC(C)(COc1ccc(Cl)cc1Cl)OS(=O)OCCF (stereo not drawn) [Compound 10]	3
CC[C@@H](COc1ccc(Cl)cc1Cl)OS(=O)OCCF (stereo partly drawn) [19-(S,R)]	0

Okay, next one:
Notebook: CC(C)(COc1ccc(Cl)cc1Cl)OS(=O)OCCF (stereo not drawn) [Compound R-10] , Number of hatched larvae 4 days after insecticide delivery, Replicate 2 read as 10

---

Tested on: eggs of Harmonia axyridis
Assay: Effect on hatching of eggs of Harmonia axyridis, egg card immersion
Format: in vivo
Details: Harmonia axyridis egg cards, 100 ppm, immersed 30 seconds, replicate 3
molecules and their reported Number of hatched larvae 4 days after insecticide delivery, Replicate 3

The recorded Number of hatched larvae 4 days after insecticide delivery, Replicate 3 for CC[C@@H](COc1ccc(Cl)cc1Cl)OS(=O)OCCF (stereo partly drawn) [19-(S,R)] is 0

Recorded Number of hatched larvae 4 days after insecticide delivery, Replicate 3 (molecule CC(C)(COS(=O)OCCF)Oc1ccc(Cl)cc1Cl (stereo not shown) [R-10′] ): 12

Number of hatched larvae 4 days after insecticide delivery, Replicate 3 recorded for this molecule, CC(COc1ccc(Cl)cc1Cl)OS(=O)OCCF (stereo not shown) , is 7

Documented Number of hatched larvae 4 days after insecticide delivery, Replicate 3 of CC[C@H](COS(=O)OCCF)Oc1ccc(Cl)cc1Cl (stereo partly drawn) [19′-(R,S)] : 9

Item: CC[C@H](COc1ccc(Cl)cc1Cl)OS(=O)OCCF (stereo partly drawn) [19-(R,S)] | Number of hatched larvae 4 days after insecticide delivery, Replicate 3: 0

For record CC(C)(COc1ccc(Cl)cc1Cl)OS(=O)OCCF (stereo not shown) [Compound R-10] the listed Number of hatched larvae 4 days after insecticide delivery, Replicate 3 is 13

The molecule CC(C)(COS(=O)OCCF)Oc1ccc(Cl)cc1Cl (stereo not shown) [Compound 10′] showed Number of hatched larvae 4 days after insecticide delivery, Replicate 3 equal to 6

---

Test system: pest eggs of Tetranychus cinnabarinus
Assay: Effect on hatching of pest eggs of Tetranychus cinnabarinus, leaf disc method
Assay type: in vivo
Conditions: 1 mg/L, 7 days after insecticide delivery, Replicate 1
assayMetric: Hatching rate (%)
Could you give me the number in %? Just the number is fine.

Some compounds with known Hatching rate (%) results, for comparison:
compound	experimentalValue
CC(COc1ccc(Cl)cc1Cl)OS(=O)OCCF (stereo not shown) [Compound 1′]	0.00
CC(C)(COc1ccc(Cl)cc1Cl)OS(=O)OCCF (stereo not shown) [Compound S-10]	0.00
CC(COc1ccc(Cl)cc1Cl)OS(=O)OCCF [1′-(S,R)]	0.00
CC(C)(COS(=O)OCCF)Oc1ccc(Cl)cc1Cl (stereo not shown) [S-10′]	0.00
CC[C@H](COS(=O)OCCF)Oc1ccc(Cl)cc1Cl (stereo partly drawn) [19′-(R,S)]	6.00
C[C@@H](COS(=O)OCCF)Oc1ccc(Cl)cc1Cl (stereo partly drawn) [1-(S,R)]	2.56
CCC(COc1ccc(Cl)cc1Cl)OS(=O)OCCF [19-(S,S)]	15.25
CC(C)(COc1ccc(Cl)cc1Cl)OS(=O)OCCF (stereo not shown) [Compound R-10]	8.11

The compound CCC(COS(=O)OCCF)Oc1ccc(Cl)cc1Cl [19′-(R,R)] , when measured on pest eggs of Tetranychus cinnabarinus, yielded Hatching rate (%) of 0.00

Value sought: Hatching rate (%), system pest eggs of Tetranychus cinnabarinus, item CC(COc1ccc(Cl)cc1Cl)OS(=O)OCCF [1′-(R,S)] . Result: 0.00

Simply: C[C@H](COS(=O)OCCF)Oc1ccc(Cl)cc1Cl (stereo partly drawn) [1-(R,S)] , pest eggs of Tetranychus cinnabarinus, Hatching rate (%) = 4.69

For the compound CCC(COc1ccc(Cl)cc1Cl)OS(=O)OCCF (stereo not shown) [Compound 19] , the measured Hatching rate (%) on pest eggs of Tetranychus cinnabarinus was 0.00

For CC[C@H](COc1ccc(Cl)cc1Cl)OS(=O)OCCF (stereo partly drawn) [19-(R,S)] on pest eggs of Tetranychus cinnabarinus, measured Hatching rate (%) was 0.00

---

Tested on: Magnaporthe grisea
Assay type: cell-based
Settings: 100 ppm, 96-well plate, replicate 3
Overview of reported Antifungal rate of Magnaporthe grisea (%), Replicate 3 across a group of compounds:
Response body: numeric value in %, unit text excluded.

compound	experimentalValue
CCC(COS(=O)OCCF)Oc1ccc(Cl)cc1Cl [19′-(R,R)]	97.26
CC(C)(COc1ccc(Cl)cc1Cl)OS(=O)OCCF (centres unmarked) [Compound 10]	94.36
CC[C@@H](COc1ccc(Cl)cc1Cl)OS(=O)OCCF (stereo partly drawn) [19-(S,R)]	99.87
CCC(COc1ccc(Cl)cc1Cl)OS(=O)OCCF [19-(R,R)]	83.45
CC[C@H](COc1ccc(Cl)cc1Cl)OS(=O)OCCF (stereo partly drawn) [19-(R,S)]	100.24

# compound CC(COc1ccc(Cl)cc1Cl)OS(=O)OCCF [1′-(R,S)] ; its Antifungal rate of Magnaporthe grisea (%), Replicate 3 = 100.26

Please fill in: Antifungal rate of Magnaporthe grisea (%), Replicate 3 reported for CC(COc1ccc(Cl)cc1Cl)OS(=O)OCCF [1′-(R,R)] = 86.71

Recorded Antifungal rate of Magnaporthe grisea (%), Replicate 3 (compound CC(C)(COc1ccc(Cl)cc1Cl)OS(=O)OCCF (centres unmarked) [Compound S-10] ): 97.51

compound CCC(COc1ccc(Cl)cc1Cl)OS(=O)OCCF [19-(S,S)] , Antifungal rate of Magnaporthe grisea (%), Replicate 3 observed: 84.38

Antifungal rate of Magnaporthe grisea (%), Replicate 3 in this record for CC(COc1ccc(Cl)cc1Cl)OS(=O)OCCF [1′-(S,R)] : 99.85

Lookup result for CC(COc1ccc(Cl)cc1Cl)OS(=O)OCCF (centres unmarked) [Compound 1′] ; measured Antifungal rate of Magnaporthe grisea (%), Replicate 3: 88.30

---

System: eggs of Spodoptera litura
Assay: Effect on hatching of eggs of Spodoptera litura, egg piece soaking
Type: in vivo
Conditions: Spodoptera litura eggs, 500 ppm, 4 days after delivery, replicate 3
assayMetric: Hatching rate (%), Replicate 3

// worked examples, Hatching rate (%), Replicate 3 included
compound	Hatching rate (%), Replicate 3
CC[C@H](COc1ccc(Cl)cc1Cl)OS(=O)OCCF (stereo partly drawn) [19-(R,S)]	16.67%
CC[C@H](COS(=O)OCCF)Oc1ccc(Cl)cc1Cl (stereo partly drawn) [19′-(R,S)]	50.00%
CC(COc1ccc(Cl)cc1Cl)OS(=O)OCCF (stereo not shown)	39.06%
CC(C)(COc1ccc(Cl)cc1Cl)OS(=O)OCCF (stereo not shown) [Compound 10]	42.11%
CC(C)(COc1ccc(Cl)cc1Cl)OS(=O)OCCF (stereo not shown) [Compound S-10]	24.19%
CCC(COS(=O)OCCF)Oc1ccc(Cl)cc1Cl (stereo not shown)	35.94%

# Hatching rate (%), Replicate 3 of CC(COS(=O)OCCF)Oc1ccc(Cl)cc1Cl (stereo not shown) = 40.42%

Field Hatching rate (%), Replicate 3 (entry CC(C)(COS(=O)OCCF)Oc1ccc(Cl)cc1Cl (stereo not shown) [Compound 10′] ) reads 42.37%

In plain terms, CC(C)(COS(=O)OCCF)Oc1ccc(Cl)cc1Cl (stereo not shown) [R-10′] has a documented Hatching rate (%), Replicate 3 of 63.64%

Note to self: Hatching rate (%), Replicate 3 recorded for CC(C)(COS(=O)OCCF)Oc1ccc(Cl)cc1Cl (stereo not shown) [S-10′] was 21.67%

So, CC[C@@H](COc1ccc(Cl)cc1Cl)OS(=O)OCCF (stereo partly drawn) [19-(S,R)] ? Its Hatching rate (%), Replicate 3 was 15.38%

// sample CC(C)(COc1ccc(Cl)cc1Cl)OS(=O)OCCF (stereo not shown) [Compound R-10] , its Hatching rate (%), Replicate 3 was 62.07%

Per the record, CCC(COc1ccc(Cl)cc1Cl)OS(=O)OCCF (stereo not shown) has Hatching rate (%), Replicate 3 of 29.82%

---

System: eggs of Tetranychus urticae
Assay: Effect on hatching of eggs of Tetranychus urticae, leaf disc method
Assay type: in vivo
Settings: 5 ppm, 5 days after insecticide delivery, Replicate 1
# rule met = Hatching rate (%) below 2% (exclusive); rule not met = Hatching rate (%) at/above 2%

Qu. Please let me know if CC[C@H](COc1ccc(Cl)cc1Cl)OS(=O)OCCF (stereo partly drawn) [19-(R,S)] shows Hatching rate (%) below 2%.
Ans. rule met

Qu. Hatching rate (%) under 2%? Item: CC[C@H](COS(=O)OCCF)Oc1ccc(Cl)cc1Cl (stereo partly drawn) [19′-(R,S)]
Ans. rule not met
